- Test system: HOP-92 NSCLC
- Assay Explanation: NCI tumour cell line growth inhibition, 48 h
Measured Parameter: TGI (µM)
Answers are plain numbers, in µM.

The following molecules have reported results that may help.
• O=C(c1ccccc1)C(C(=O)c1ccccc1)c1nc2ccccc2sc1=O = 13
• C=C(C)C(=O)Oc1ccc(N=Nc2ccc(C)cc2)ccc1=O = 16.1
• COc1cc(-c2n[nH]nc2-c2ccc3c(c2)OCCO3)cc(OC)c1OC = 0.543
• O=C1Nc2ccccc2/C1=C/C(=N/c1nnc(-c2ccccc2)s1)c1ccccc1 = 2.93
• Cc1ccc(Nc2nc3nc[nH]c3c(=O)[nH]2)cc1CO = 21

For every item in the list below, what is its measured TGI?
1. CCOC(=O)/C=C(\C(=O)OCC)n1ccc(=O)n(Cc2cnnn2COCCOC(C)=O)c1=O
2. CN(C)Cc1cc(/C(=C(\C#N)c2ccccc2)c2ccc(O)cc2)ccc1O

output:
1: 2.16; 2: 52.4

Count: 2. Required value per item: TGI.
1. CCC/C=C/C=C/C(=O)OC1C(C)C2(O)C3C=C(C)C(=O)C3CC(COC(C)=O)=CC2C2C(C)(C)C12OC(=O)C(C)C (stereo not given)
2. Cc1nnc(N)nc1C/C=C/C(Sc1ccc(Cl)cc1)c1ccccc1 (stereo not given)

output:
1: 27.2; 2: 23.7

---

- System: SNB-19 CNS
- Assay Explanation: NCI tumour cell line growth inhibition, 48 h; in the data active = GI50 below about 0.43 µM; inactive = the rest
Result category, one only: active, inactive

Solved entries:
- Cc1ccc(-c2c(C#N)[n+](=O)c3cc(Cl)c(Cl)cc3n2[O-])cc1: inactive
- Cc1cccc2c(C(=O)O[C@H](C(N)=O)[C@]3(C)CO3)cccc12: inactive
- C[C@@]12C(=O)OC(=O)[C@]1(C)[C@H]1CC[C@@H]2O1: inactive

input: Each compound tested received a call. Report the one for Cc1cc(C)c(-c2cc(O)c(-c3c(C)cc(C)cc3C)cc2O)c(C)c1 .
output: inactive

input: What about [O-]c1ccccc1/C=N/c1nccs1.[O-]c1ccccc1/C=N/c1nccs1.[O]=[U+2]=[O] ?
output: inactive

input: How about this compound: CCN(Cc1ccncc1)c1ccc(CO)c(Cl)c1
output: inactive

input: Then COc1ccc(C2CC(c3cc(Cl)c(C)cc3O)=NN2c2ccc(S(N)(=O)=O)cc2)cc1OC (stereo not given) ?
output: inactive

input: Next compound up: c1ccc(-c2c(-c3ccccc3)[n+](Cc3ccc4ccccc4c3)c(-c3cccc4ccccc34)n2Cc2ccc3ccccc3c2)cc1
output: active

input: Next up: CS(=O)(=O)Nc1cc(-c2ccc3ncnc(Nc4ccc5c(cnn5Cc5cccc(F)c5)c4)c3c2)cnc1Cl
output: inactive

input: Now this one: COC1=CC(c2ccc[nH]2)=N/C1=C\c1[nH]c(C)c(C(=O)CCCCC(=O)NCc2ccccc2)c1C
output: inactive

---

- Tested on: HOP-92 NSCLC
- Assay Explanation: NCI tumour cell line growth inhibition, 48 h
Task for the reader: assign each of the following compounds its reported GI50.

* O=C1/C(=C/c2ccc(Cl)cc2)COc2ccc(O)cc21 | 8840 nM
* O=C1Nc2ccccc2/C1=C/C(=N/c1nnc(-c2ccccc2)s1)c1ccccc1 | 987 nM

Each of the following entries comes with a recorded value; kindly state GI50 for each.
1. CCCCCCCCc1cc[n+](CC(=O)c2ccc(Br)cc2)cc1
2. COc1ccc(C2CC(c3cc(Cl)c(C)cc3O)=NN2c2ccc(S(N)(=O)=O)cc2)cc1OC (stereo not given)
3. COc1ccc2nc(NNC(=O)c3cnccn3)c3cccn3c2c1
4. CC(=O)OC1COC(N2CCc3ccccc32)C(OC(C)=O)C1OC(C)=O (stereo not given)
5. CC(C)(C)c1ccc(C(=O)Nc2sc3c(c2C#N)CCC(=O)C3)cc1
6. Cn1cc(-c2nc3c(F)cc4[nH]ncc4c3c3c2CCCC3)c(C(F)(F)F)n1

output:
["1470 nM", "1810 nM", "930 nM", "> 100000 nM", "1210 nM", "19600 nM"]

For every item in the list below, what is its measured GI50?
1. CCCCNCC(O)c1cc2c(Cl)cc(Cl)cc2c2cc(C(F)(F)F)ccc12 (stereo not given)
2. Cc1cc(-c2ncc(-c3cccnc3)cc2/C=C/c2ccccc2)cnc1-c1cccnc1

output:
1200 nM
2960 nM

The reported measurements were obtained from PubChem BioAssay (NCI).
